- System tested: EGFR T790M/L858R Ba/F3 cell line (Homo sapiens, UniProt P00533, T790M/L858R, cells depend on it)
- Construct: "The constructs were shuttled into the retroviral vector JP1540 using the BD Creator™ System (BD Biosciences)
- Sequence (P00533 whole entry T790M/L858R): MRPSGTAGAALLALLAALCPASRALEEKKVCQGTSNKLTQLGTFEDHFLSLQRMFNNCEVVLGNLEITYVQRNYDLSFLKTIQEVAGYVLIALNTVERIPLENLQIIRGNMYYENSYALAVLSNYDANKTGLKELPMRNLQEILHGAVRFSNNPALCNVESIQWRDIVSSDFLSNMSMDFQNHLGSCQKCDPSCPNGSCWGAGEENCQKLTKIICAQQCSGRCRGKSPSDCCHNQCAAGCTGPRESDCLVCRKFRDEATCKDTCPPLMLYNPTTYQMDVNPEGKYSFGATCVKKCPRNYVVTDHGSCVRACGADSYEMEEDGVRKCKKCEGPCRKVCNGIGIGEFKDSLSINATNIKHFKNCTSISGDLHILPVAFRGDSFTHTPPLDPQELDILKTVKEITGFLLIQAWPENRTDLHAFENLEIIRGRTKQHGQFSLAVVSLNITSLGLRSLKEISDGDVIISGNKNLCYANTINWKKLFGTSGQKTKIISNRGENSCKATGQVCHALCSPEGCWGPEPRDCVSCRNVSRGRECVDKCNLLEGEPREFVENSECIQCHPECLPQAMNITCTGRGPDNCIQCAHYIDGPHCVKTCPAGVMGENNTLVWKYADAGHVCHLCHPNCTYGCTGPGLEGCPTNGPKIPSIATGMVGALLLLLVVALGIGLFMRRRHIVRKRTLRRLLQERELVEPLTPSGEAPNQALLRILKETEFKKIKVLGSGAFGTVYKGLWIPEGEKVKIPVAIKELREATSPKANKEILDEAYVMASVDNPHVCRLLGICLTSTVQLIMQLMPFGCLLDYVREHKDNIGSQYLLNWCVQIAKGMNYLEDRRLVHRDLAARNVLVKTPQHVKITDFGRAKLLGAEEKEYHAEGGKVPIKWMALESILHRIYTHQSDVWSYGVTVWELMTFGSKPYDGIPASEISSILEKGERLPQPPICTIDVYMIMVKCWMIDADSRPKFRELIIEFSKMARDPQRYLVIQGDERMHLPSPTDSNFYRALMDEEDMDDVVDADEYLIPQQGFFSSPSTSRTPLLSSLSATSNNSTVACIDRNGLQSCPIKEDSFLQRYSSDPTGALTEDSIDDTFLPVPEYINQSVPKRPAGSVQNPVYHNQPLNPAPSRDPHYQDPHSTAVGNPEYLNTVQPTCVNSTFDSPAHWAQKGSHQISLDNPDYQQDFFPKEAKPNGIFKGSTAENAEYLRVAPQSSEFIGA
- Assay remarks: Ba/F3 cell proliferation (MTS assay), EGFR T790M/L858R
- Assay type: cell-based, murine
- Assay setup: absence of cetuximab; read-out: Ba/F3 cellular activity (EC50) T790M/L858R
pEC50: −log10 of the molar value.
Assignment: determine reported pEC50 for the given compounds.

Compound: Nc1ccc2c(c1)N(Cc1ccccc1)C(=O)c1cc(-c3ccc4[nH]ccc4c3)ccc1N2 [Compound I-14]
Experimental value: ≤ 6.12
--
Compound: O=C1c2cc(-c3ccc4[nH]ccc4c3)ccc2Nc2ccc(F)cc2N1Cc1ccccc1 [Compound I-2]
Experimental value: ≤ 6.12
--
Compound: O=C1c2cc(-c3ccc4[nH]ccc4c3)ccc2Nc2ccc(F)cc2N1Cc1cccnc1 [Compound I-9]
Experimental value: ≤ 6.12
--
Compound: O=C1c2cc(-c3ccc(N4CCNCC4)cc3)ccc2Nc2ccc(F)cc2N1c1ccccc1 [Compound I-5]
Experimental value: ≤ 6.12
--
Compound: O=C1c2cc(-c3ccc(N4CCNCC4)cc3)ccc2Nc2ccc(F)cc2N1Cc1ccccc1 [Compound I-1]
Experimental value: ≤ 6.12
--
Compound: O=C1c2cc(-c3ccc4[nH]ccc4c3)ccc2Nc2ccc(F)cc2N1c1ccccc1 [Compound I-8]
Experimental value: ≤ 6.12
--
Compound: O=C1c2cc(-c3ccc(N4CCNCC4)cc3)ccc2Nc2ccncc2N1Cc1ccccc1 [Compound I-13]
Experimental value: ≤ 6.12
--
Compound: O=C1c2cc(-c3ccc(N4CCNCC4)cc3)ccc2Nc2ccc(F)cc2N1Cc1nccs1 [Compound I-7]
Experimental value: ≤ 6.12

Dear colleague, could you please provide pEC50 for the compounds listed below?
1. O=C1c2cc(-c3ccc(N4CCNCC4)cc3)ccc2Nc2ccc(F)cc2N1Cc1ccc2cc[nH]c2c1 [Compound I-19]
2. O=C1c2cc(-c3ccc4[nH]ccc4c3)ccc2Nc2ccc(F)cc2N1Cc1nccs1 [Compound I-10]
3. O=C1c2cc(-c3ccc(N4CCNCC4)cc3)ccc2Nc2ccc(F)cc2N1Cc1cccc2cc[nH]c12 [Compound I-18]
4. O=C1c2cc(-c3ccc(N4CCNCC4)cc3)ccc2Nc2ccc(F)cc2N1Cc1cccnc1 [Compound I-6]
5. CCC(=O)Nc1ccc2c(c1)N(Cc1ccccc1)C(=O)c1cc(-c3ccc4[nH]ccc4c3)ccc1N2 [Compound I-16]

["≤ 6.12", "≤ 6.12", "≤ 6.12", "≤ 6.12", "6.30 to 6.60"]

====

- System tested: recombinant EGFR T790M/L858R kinase (Homo sapiens, UniProt P00533, L858R/T790M)
- Construct: Constructs spanning residues 696-1022 of the human EGFR; GST (cleaved yes)
- Assay remarks: HTRF-based EGFR biochemical assay
Assignment: determine reported IC50 for the given compounds.

Answered cases to consult:
Smiles str: O=C1c2cc(-c3ccc4[nH]ccc4c3)ccc2Nc2ccc(F)cc2N1c1ccccc1
Measured attribute: IC50
Experimental value: ≥ 750 nM
//
Smiles str: O=C1c2cc(-c3ccc(N4CCNCC4)cc3)ccc2Nc2ccccc2N1Cc1ccccc1
Measured attribute: IC50
Experimental value: < 250 nM
//
Smiles str: CN1CCC(n2cc(-c3ccc4c(c3)C(=O)N(Cc3cc(F)cc(F)c3)c3cc(F)ccc3N4)cn2)CC1
Measured attribute: IC50
Experimental value: < 250 nM

Look up IC50 for this compound: `O=C1c2cc(-c3ccc(N4CCNCC4)cc3)ccc2Nc2ccncc2N1Cc1ccccc1`
≥ 750 nM

====

- System tested: EGFR T790M/L858R Ba/F3 cell line (Homo sapiens, UniProt P00533, T790M/L858R, cells depend on it)
- Construct: "The constructs were shuttled into the retroviral vector JP1540 using the BD Creator™ System (BD Biosciences)
- Assay remarks: Ba/F3 cell proliferation (MTS assay), EGFR T790M/L858R
- Assay type: cell-based, murine
- Assay setup: compound at 1 μM in the presence of 1 μg/mL cetuximab; EGFR T790M/L858R Ba/F3
Measured attribute: Activity (% cetuximab); inhibition of proliferation

Smiles str: O=C1c2cc(-c3ccc(N4CCNCC4)cc3)ccc2Nc2ccccc2N1Cc1ccccc1
Experimental value: B (25 ≤ B < 50)

Smiles str: O=C1c2cc(-c3ccc4[nH]ccc4c3)ccc2Nc2ccc(F)cc2N1Cc1nccs1
Experimental value: D (75 ≤ D)

Smiles str: O=C1c2cc(-c3ccc4[nH]ccc4c3)ccc2Nc2ccc(F)cc2N1c1ccccc1
Experimental value: D (75 ≤ D)

Smiles str: O=C1c2cc(-c3ccc(N4CCNCC4)cc3)ccc2Nc2ccc(F)cc2N1Cc1ccccc1
Experimental value: B (25 ≤ B < 50)

Smiles str: O=C1c2cc(-c3ccc(N4CCNCC4)cc3)ccc2Nc2ccc(F)cc2N1Cc1cccnc1
Experimental value: D (75 ≤ D)

Smiles str: O=C1c2cc(-c3ccc4[nH]ccc4c3)ccc2Nc2ccc(F)cc2N1Cc1cccnc1
Experimental value: D (75 ≤ D)

Dear colleague, could you please provide Activity (% cetuximab); inhibition of proliferation for the compounds listed below?
1. O=C1c2cc(-c3ccc4[nH]ccc4c3)ccc2Nc2ccc(F)cc2N1Cc1ccccc1
2. CN1CCC(n2cc(-c3ccc4c(c3)C(=O)N(Cc3ccccc3)c3cc(F)ccc3N4)cn2)CC1
3. O=C1c2cc(-c3ccc(N4CCNCC4)cc3)ccc2Nc2ccc(F)cc2N1c1ccccc1

1: B (25 ≤ B < 50); 2: B (25 ≤ B < 50); 3: D (75 ≤ D)

====

Assignment: determine reported EC50 for the given compounds.
- System tested: EGFR T790M/L858R Ba/F3 cell line (Homo sapiens, UniProt P00533, T790M/L858R, cells depend on it)
- Construct: "The constructs were shuttled into the retroviral vector JP1540 using the BD Creator™ System (BD Biosciences)
- Assay remarks: Ba/F3 cell proliferation (MTS assay), EGFR T790M/L858R
- Type: cell-based, murine
- Assay setup: read-out: Ba/F3 cellular activity (EC50) T790M/L858R + Cetuximab (1 μg/mL); presence of 1 μg/mL cetuximab

Answered cases to consult:
Compound: O=C1c2cc(-c3ccc(N4CCNCC4)cc3)ccc2Nc2ccccc2N1Cc1ccccc1 [Compound I-11]
EC50: 250 to 500 nM

Compound: CCC(=O)Nc1ccc2c(c1)N(Cc1ccccc1)C(=O)c1cc(-c3ccc4[nH]ccc4c3)ccc1N2 [Compound I-16]
EC50: 250 to 500 nM

Compound: O=C1c2cc(-c3ccc(N4CCNCC4)cc3)ccc2Nc2ccc(F)cc2N1Cc1cccnc1 [Compound I-6]
EC50: ≥ 750 nM

Compound: O=C1c2cc(-c3ccc(N4CCNCC4)cc3)ccc2Nc2ccc(F)cc2N1Cc1ccccc1 [Compound I-1]
EC50: 500 to 750 nM

Compound: CN1CCC(n2cc(-c3ccc4c(c3)C(=O)N(Cc3ccccc3)c3cc(F)ccc3N4)cn2)CC1 [Compound I-3]
EC50: < 250 nM

Dear colleague, could you please provide EC50 for the compounds listed below?
1. O=C1c2cc(-c3ccc(N4CCNCC4)cc3)ccc2Nc2ccc(F)cc2N1c1ccccc1 [Compound I-5]
2. O=C1c2cc(-c3ccc(-c4cn[nH]c4)cc3)ccc2Nc2ccc(F)cc2N1Cc1ccccc1 [Compound I-4]

1: ≥ 750 nM; 2: 250 to 500 nM

====

- System tested: recombinant EGFR T790M/L858R kinase (Homo sapiens, UniProt P00533, L858R/T790M)
- Construct: Constructs spanning residues 696-1022 of the human EGFR; GST (cleaved yes)
- Assay remarks: HTRF-based EGFR biochemical assay
- Protocol: EGFR kinase proteins were purified by glutathione-affinity chromatography followed by size-exclusion chromatography after cleavage with TEV or thrombin to remove the GST fusion partner following established procedures. (Yun 2008; Yun 2007). EGFR biochemical assays were carried out using a homogeneous time-resolved fluorescence (HTRF) assay as described previously. […]
pIC50: −log10 of the molar value.
Measured attribute: pIC50

Smiles str: O=C1c2cc(-c3ccc(N4CCNCC4)cc3)ccc2Nc2ccc(F)cc2N1Cc1ccc2cc[nH]c2c1
System tested: recombinant EGFR T790M/L858R kinase (Homo sapiens, UniProt P00533, L858R/T790M)
pIC50: ≤ 6.12

Dear colleague, could you please provide pIC50 for the molecules listed below?
1. CN1CCC(n2cc(-c3ccc4c(c3)C(=O)N(Cc3ccccc3)c3cc(F)ccc3N4)cn2)CC1
2. CN1CCC(c2ccc(-c3ccc4c(c3)C(=O)N(Cc3ccccc3)c3cc(F)ccc3N4)cc2)CC1
3. O=C1c2cc(-c3ccc(N4CCNCC4)cc3)ccc2Nc2ccc(F)cc2N1c1ccccc1
4. O=C1c2cc(-c3ccc(N4CCNCC4)cc3)ccc2Nc2ncc(F)cc2N1Cc1ccccc1
5. O=C1c2cc(-c3ccc4[nH]ccc4c3)ccc2Nc2ccc(F)cc2N1Cc1nccs1
6. CN1CCN(c2ccc(Oc3ccc4c(c3)C(=O)N(Cc3ccccc3)c3cc(F)ccc3N4)cc2)CC1

> 6.60
> 6.60
≤ 6.12
≤ 6.12
≤ 6.12
> 6.60
